# experimental.target: HCV NS3/4A protease complex, BMS strain (UniProt P27958, C1454S/C1711G, species not given/STRAIN_BMS)
# experiment.summary: Recombinant HCV NS3/4A protease complex FRET peptide assay (BMS strain)
# Type: biochemical, HCV genotype 1a
# measurement.setup: NS3/4A BMS strain; read-out: IC50 range
# Method: Recombinant HCV NS3/4A Protease Complex FRET Peptide Assay […] The assay was performed in a 96-well polystyrene black plate from Falcon. […] The assay plate was read immediately using the Cytofluor Series 4000 (Perspective Biosystems). The instrument was set to read an emission of 340 nm and excitation of 490 nm at 25° C. […] The percent inhibition was calculated with the following equation: 100−[(δFinh/δFcon)×100] where δF is the change in fluorescence over the linear range of the curve.
pIC50: −log10 of the molar value.
readout.kind: pIC50

molecule=C=C[C@@H]1C[C@]1(NC(=O)[C@@H]1C[C@@H](Oc2ccnc3cc(OC)ccc23)CN1C(=O)[C@@H](NC(=O)OC(C)(C)C)C(C)(C)C)C(=O)NS(=O)(=O)C1CC1 result="> 7.00"
molecule="C=C[C@@H]1CC1(NC(=O)[C@@H]1CC(Oc2nccc3cc(OC)ccc23)CN1C(=O)[C@@H](NC(=O)OC1CCCC1)C(C)(C)C)C(=O)NS(=O)(=O)C1CC1 (stereo partly shown)" result="> 7.00"
molecule=C=C[C@@H]1C[C@]1(NC(=O)[C@@H]1C[C@@H](Oc2nc(Cl)cc3cc(OC)ccc23)CN1C(=O)[C@@H](NC(=O)OC(C)(C)C)C(C)(C)C)C(=O)NS(=O)(=O)C1CC1 result="> 7.00"
molecule="C=CC1CC1(NC(=O)C1CC(Oc2nc(C3CC3)nc3cc(OC)c(OC)cc23)CN1C(=O)[C@@H](NC(=O)OC(C)(C)C)C(C)(C)C)C(=O)NS(=O)(=O)C(C)C (mixture of isomers)" result="6.00 to 7.00"
molecule="C=CC1C[C@]1(NC(=O)[C@@H]1C[C@@H](Oc2nc(-c3cccc(N(C)C)c3)cc3cc(OC)ccc23)CN1C(=O)[C@@H](NC(=O)OC(C)(C)C)C(C)(C)C)C(=O)NS(=O)(=O)C1CC1 (stereo partly shown)" result="> 7.00"

Turning now to a further record.
pIC50 reported for this molecule C=CC1C[C@]1(NC(=O)[C@@H]1C[C@@H](COc2ccnc(-c3ccoc3)c2)CN1C(=O)[C@@H](NC(=O)OC)C(C)(C)C)C(=O)NS(=O)(=O)C1CC1 (stereo partly shown) : 5.00 to 6.00

###

# Test system: HCV replicon in Huh7 cells
# experiment.summary: HCV replicon cell-based assay
# Design: species or system HCV strain 1B
# measurement.setup: Hepatitis C virus, Huh-7; HCV replicon, Huh7 cells; read-out: EC50 range
pEC50: −log10 of the molar value.
Listing of recorded pEC50 by entry.

molecule="C=C[C@@H]1C[C@]1(NC(=O)[C@@H]1CC(Oc2nccc3cc(OC)ccc23)CN1C(=O)[C@H](CC(C)C)N(C)C(=O)OC(C)(C)C)C(=O)NS(=O)(=O)C1CC1 (stereo partly drawn)" result="4.00 to 5.00"

Record summary for C=C[C@@H]1C[C@]1(NC(=O)[C@@H]1C[C@@H](Oc2nccc3cc(OC)ccc23)CN1C(=O)[C@@H](NC(=O)NCC(=O)OC)C(C)(C)C)C(=O)NS(=O)(=O)C1CC1 : reported pEC50 = 6.00 to 7.00

Form: molecule = C=C[C@@H]1C[C@]1(NC(=O)[C@@H]1C[C@@H](Oc2cccc(-c3ccccc3)n2)CN1C(=O)[C@@H](NC(=O)OC(C)(C)C)C(C)(C)C)C(=O)NS(=O)(=O)C1CC1 ; pEC50 = 6.00 to 7.00
